Reference for the values: patent US20250326771A1

target-of-assay: cIAP2-BIR2 (Homo sapiens (Human))
Sequence (Q13489 158-242): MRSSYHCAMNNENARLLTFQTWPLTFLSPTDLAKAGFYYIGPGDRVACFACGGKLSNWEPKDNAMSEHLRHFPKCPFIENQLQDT
procedure-text: BIR binding assay (FRET competition), cIAP2 BIR2
Protocol: The BIR domain binding assays are FRET based competition assays that utilize His-tagged versions of each of the BIR2 and BIR3 domains from cIAP1, cIAP2, and XIAP (each domain assayed separately) each at a custom optimal concentration and a probe, 200 nM SMAC/DIABLO peptide […] labelled with AlexaFluor647 (part #crb 1110326h, Discovery Peptides). The assay is conducted in 50 mM HEPES, […], 1 mM CHAPS, 5% Glycerol, 1 mM DTT, in dI water with a final pH of 7.4 and final volume of 20 uL. […]
Entries and their IC50

Which IC50 is listed for `C[C@@H]1CN(CC(=O)N2CC(C)(C)c3[nH]c(=O)c(Cc4ccc(F)cc4)cc32)[C@@H](CN2CCO[C@H](COc3ccccc3OC[C@@H]3CN(C[C@H]4CN[C@H](C)CN4CC(=O)N4CC(C)(C)c5[nH]c(=O)c(Cc6ccc(F)cc6)cc54)CCO3)C2)CN1` ?
1 to 3.16 µM

Which IC50 is listed for `C[C@@H]1CN(CC(=O)N2CC(C)(C)c3[nH]c(=O)c(Cc4ccc(F)cc4)cc32)[C@@H](CN2CCN(C(=O)CCCCCCCCC(=O)N3CCN(C[C@H]4CN[C@H](C)CN4CC(=O)N4CC(C)(C)c5[nH]c(=O)c(Cc6ccc(F)cc6)cc54)[C@H](C)C3)C[C@H]2C)CN1` ?
1 to 3.16 µM

Which IC50 is listed for `C[C@@H]1CN(CC(=O)N2CC(C)(C)c3[nH]c(=O)c(Cc4ccc(F)cc4)cc32)[C@@H](CN2CCO[C@@H](C(=O)NCc3ccc(CNC(=O)[C@H]4CN(C[C@H]5CN[C@H](C)CN5CC(=O)N5CC(C)(C)c6[nH]c(=O)c(Cc7ccc(F)cc7)cc65)CCO4)cc3)C2)CN1` ?
3.16 to 10 µM

Which IC50 is listed for `C[C@@H]1CN(CC(=O)N2CC(C)(C)c3[nH]c(=O)c(Cc4ccc(F)cc4)cc32)[C@@H](CN2CCN(C(=O)c3ccc4cc(C(=O)N5CCN(C[C@H]6CN[C@H](C)CN6CC(=O)N6CC(C)(C)c7[nH]c(=O)c(Cc8ccc(F)cc8)cc76)[C@H](C)C5)ccc4c3)C[C@H]2C)CN1` ?
1 to 3.16 µM

Which IC50 is listed for `C[C@@H]1CN(CC(=O)N2CC(C)(C)c3[nH]c(=O)c(Cc4c(F)c(F)c(F)c(F)c4F)cc32)[C@@H](CN2CCO[C@H](C(=O)NCc3ccc(CNC(=O)[C@@H]4CN(C[C@H]5CN[C@H](C)CN5CC(=O)N5CC(C)(C)c6[nH]c(=O)c(Cc7c(F)c(F)c(F)c(F)c7F)cc65)CCO4)cc3)C2)CN1` ?
3.16 to 10 µM

Which IC50 is listed for `COc1cc(F)ccc1Cc1cnc2c(c1)N(C(=O)CN1C[C@@H](C)NC[C@@H]1CN1CCO[C@H](COc3cccc(OC[C@@H]4CN(C[C@H]5CN[C@H](C)CN5CC(=O)N5CC(C)(C)c6ncc(Cc7ccc(F)cc7OC)cc65)CCO4)c3)C1)CC2(C)C` ?
3.16 to 10 µM

Let us examine a further case.
Which IC50 is listed for `C[C@@H]1CN(CC(=O)N2CC(C)(C)c3[nH]c(=O)c(Cc4ccc(F)cc4)cc32)[C@@H](CN2CCO[C@@H](COc3cccc(OC[C@H]4CN(C[C@H]5CN[C@H](C)CN5CC(=O)N5CC(C)(C)c6[nH]c(=O)c(Cc7ccc(F)cc7)cc65)CCO4)c3)C2)CN1` ?
1 to 3.16 µM

* * *

target-of-assay: cIAP1-BIR3 (Homo sapiens (Human))
Sequence (Q13490 253-363): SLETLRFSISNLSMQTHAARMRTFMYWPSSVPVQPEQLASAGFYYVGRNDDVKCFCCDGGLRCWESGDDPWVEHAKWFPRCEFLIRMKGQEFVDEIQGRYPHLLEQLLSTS
procedure-text: BIR binding assay (FRET competition), cIAP1 BIR3
measurement-setup: fold separation (FS) for cIAP1
measure-name: cIAP1 BIR3 vs BIR2 separation window

Provide the documented cIAP1 BIR3 vs BIR2 separation window with cIAP1-BIR3 (Homo sapiens (Human)) as the system for `C[C@@H]1CN(CC(=O)N2CC(C)(C)c3[nH]c(=O)c(Cc4ccc(F)cc4)cc32)[C@@H](CN2CCC(CN(C)C(=O)Cc3ccc(CC(=O)N(C)CC4CCN(C[C@H]5CN[C@H](C)CN5CC(=O)N5CC(C)(C)c6[nH]c(=O)c(Cc7ccc(F)cc7)cc65)CC4)cc3)CC2)CN1`
+++ (10,000>FS>1,000)

Provide the documented cIAP1 BIR3 vs BIR2 separation window with cIAP1-BIR3 (Homo sapiens (Human)) as the system for `C[C@@H]1CN(CC(=O)N2CC(C)(C)c3[nH]c(=O)c(Cc4c(F)cc(F)cc4F)cc32)[C@@H](CN2CCO[C@H](COc3cccc(OC[C@@H]4CN(C[C@H]5CN[C@H](C)CN5CC(=O)N5CC(C)(C)c6[nH]c(=O)c(Cc7c(F)cc(F)cc7F)cc65)CCO4)c3)C2)CN1`
+++ (10,000>FS>1,000)

Provide the documented cIAP1 BIR3 vs BIR2 separation window with cIAP1-BIR3 (Homo sapiens (Human)) as the system for `C[C@@H]1CN(CC(=O)N2CC(C)(C)c3[nH]c(=O)c(Cc4ccc(Cl)cc4C#N)cc32)[C@@H](CN2CCO[C@H](COc3cccc(OC[C@@H]4CN(C[C@H]5CN[C@H](C)CN5CC(=O)N5CC(C)(C)c6[nH]c(=O)c(Cc7ccc(Cl)cc7C#N)cc65)CCO4)c3)C2)CN1`
+++ (10,000>FS>1,000)

* * *

Test system: Jurkat HIV-luciferase clones
procedure-text: Jurkat latency reversal assay
Type: cell-based
measurement-setup: Homo sapiens, 48 h; Jurkat latency reversal assay potency; read-out: Jurkat pEC50 (converted)
measure-name: EC50

Which EC50 is listed for `C[C@@H]1CN(CC(=O)N2CC(C)(C)c3[nH]c(=O)c(Cc4ccc(F)cc4)cc32)[C@@H](CN2CCN(C(=O)c3ccc(/C=C/c4ccc(C(=O)N5CCN(C[C@H]6CN[C@H](C)CN6CC(=O)N6CC(C)(C)c7[nH]c(=O)c(Cc8ccc(F)cc8)cc76)[C@H](C)C5)cc4)cc3)C[C@H]2C)CN1` ?
12.6 to 63.1 nM

Let us examine a further case.
Which EC50 is listed for `C[C@@H]1CN(CC(=O)N2CC(C)(C)c3[nH]c(=O)c(Cc4ccc(F)cc4)cc32)[C@@H](CN2CCO[C@H](C(=O)NCCNC(=O)[C@@H]3CN(C[C@H]4CN[C@H](C)CN4CC(=O)N4CC(C)(C)c5[nH]c(=O)c(Cc6ccc(F)cc6)cc54)CCO3)C2)CN1` ?
316 to 3310 nM

* * *

Entries and their IC50
target-of-assay: cIAP2-BIR3 (Homo sapiens (Human), UniProt Q13489)
Sequence (Q13489 238-349): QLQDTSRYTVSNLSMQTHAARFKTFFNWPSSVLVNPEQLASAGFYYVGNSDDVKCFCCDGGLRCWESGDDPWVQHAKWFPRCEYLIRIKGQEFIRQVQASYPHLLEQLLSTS
procedure-text: BIR binding assay (FRET competition), cIAP2 BIR3

// solved cases for IC50 follow
Which IC50 is listed for C[C@@H]1CN(CC(=O)N2CC(C)(C)c3[nH]c(=O)c(Cc4ccc(C(F)F)cc4)cc32)[C@@H](CN2CCO[C@H](C(=O)NCc3ccc(CNC(=O)[C@@H]4CN(C[C@H]5CN[C@H](C)CN5CC(=O)N5CC(C)(C)c6[nH]c(=O)c(Cc7ccc(C(F)F)cc7)cc65)CCO4)cc3)C2)CN1 [Compound 166] ?
1.38 to 7.94 nM

Which IC50 is listed for C[C@@H]1CN(CC(=O)N2CC(C)(C)c3[nH]c(=O)c(Cc4c(F)c(F)c(F)c(F)c4F)cc32)[C@@H](CN2CCO[C@H](C(=O)NCc3ccc(CNC(=O)[C@@H]4CN(C[C@H]5CN[C@H](C)CN5CC(=O)N5CC(C)(C)c6[nH]c(=O)c(Cc7c(F)c(F)c(F)c(F)c7F)cc65)CCO4)cc3)C2)CN1 [Compound 176] ?
15.8 to 31.6 nM

Let us examine a further case.
Which IC50 is listed for C[C@@H]1CN(CC(=O)N2CC(C)(C)c3[nH]c(=O)c(Cc4ccc(F)cc4)cc32)[C@@H](CN2CCN(C(=O)CN(C)CC(=O)N3CCN(C[C@H]4CN[C@H](C)CN4CC(=O)N4CC(C)(C)c5[nH]c(=O)c(Cc6ccc(F)cc6)cc54)[C@H](C)C3)C[C@H]2C)CN1 [Example 15] ?
1.38 to 7.94 nM

* * *

Entries and their IC50
target-of-assay: cIAP2-BIR3 (Homo sapiens (Human), UniProt Q13489)
procedure-text: BIR binding assay (FRET competition), cIAP2 BIR3

// solved cases for IC50 follow
Which IC50 is listed for `COc1cc(F)ccc1Cc1cnc2c(c1)N(C(=O)CN1C[C@@H](C)NC[C@@H]1CN1CCO[C@H](COc3cccc(OC[C@@H]4CN(C[C@H]5CN[C@H](C)CN5CC(=O)N5CC(C)(C)c6ncc(Cc7ccc(F)cc7OC)cc65)CCO4)c3)C1)CC2(C)C` ?
7.94 to 15.8 nM

Which IC50 is listed for `C[C@@H]1CN(CC(=O)N2CC(C)(C)c3ncc(Nc4ccc(F)cc4)cc32)[C@@H](CN2CCO[C@H](COc3cccc(OC[C@@H]4CN(C[C@H]5CN[C@H](C)CN5CC(=O)N5CC(C)(C)c6ncc(Nc7ccc(F)cc7)cc65)CCO4)c3)C2)CN1` ?
15.8 to 31.6 nM

Which IC50 is listed for `C[C@@H]1CN(CC(=O)N2CC(C)(C)c3[nH]c(=O)c(Cc4ccc(F)c(F)c4F)cc32)[C@@H](CN2CCO[C@H](C(=O)NCc3ccc(CNC(=O)[C@@H]4CN(C[C@H]5CN[C@H](C)CN5CC(=O)N5CC(C)(C)c6[nH]c(=O)c(Cc7ccc(F)c(F)c7F)cc65)CCO4)cc3)C2)CN1` ?
7.94 to 15.8 nM

Let us examine a further case.
Which IC50 is listed for `Cc1cc(OC[C@@H]2CN(C[C@H]3CN[C@H](C)CN3CC(=O)N3CC(C)(C)c4[nH]c(=O)c(Cc5ccc(F)cc5)cc43)CCO2)cc(OC[C@@H]2CN(C[C@H]3CN[C@H](C)CN3CC(=O)N3CC(C)(C)c4[nH]c(=O)c(Cc5ccc(F)cc5)cc43)CCO2)c1` ?
7.94 to 15.8 nM
